# credit: patent US20170182124A1

System Tested: 3T3-L1 adipocytes (Mus musculus, UniProt P16092+Q99N32)
Sequence (Q99N32 whole entry): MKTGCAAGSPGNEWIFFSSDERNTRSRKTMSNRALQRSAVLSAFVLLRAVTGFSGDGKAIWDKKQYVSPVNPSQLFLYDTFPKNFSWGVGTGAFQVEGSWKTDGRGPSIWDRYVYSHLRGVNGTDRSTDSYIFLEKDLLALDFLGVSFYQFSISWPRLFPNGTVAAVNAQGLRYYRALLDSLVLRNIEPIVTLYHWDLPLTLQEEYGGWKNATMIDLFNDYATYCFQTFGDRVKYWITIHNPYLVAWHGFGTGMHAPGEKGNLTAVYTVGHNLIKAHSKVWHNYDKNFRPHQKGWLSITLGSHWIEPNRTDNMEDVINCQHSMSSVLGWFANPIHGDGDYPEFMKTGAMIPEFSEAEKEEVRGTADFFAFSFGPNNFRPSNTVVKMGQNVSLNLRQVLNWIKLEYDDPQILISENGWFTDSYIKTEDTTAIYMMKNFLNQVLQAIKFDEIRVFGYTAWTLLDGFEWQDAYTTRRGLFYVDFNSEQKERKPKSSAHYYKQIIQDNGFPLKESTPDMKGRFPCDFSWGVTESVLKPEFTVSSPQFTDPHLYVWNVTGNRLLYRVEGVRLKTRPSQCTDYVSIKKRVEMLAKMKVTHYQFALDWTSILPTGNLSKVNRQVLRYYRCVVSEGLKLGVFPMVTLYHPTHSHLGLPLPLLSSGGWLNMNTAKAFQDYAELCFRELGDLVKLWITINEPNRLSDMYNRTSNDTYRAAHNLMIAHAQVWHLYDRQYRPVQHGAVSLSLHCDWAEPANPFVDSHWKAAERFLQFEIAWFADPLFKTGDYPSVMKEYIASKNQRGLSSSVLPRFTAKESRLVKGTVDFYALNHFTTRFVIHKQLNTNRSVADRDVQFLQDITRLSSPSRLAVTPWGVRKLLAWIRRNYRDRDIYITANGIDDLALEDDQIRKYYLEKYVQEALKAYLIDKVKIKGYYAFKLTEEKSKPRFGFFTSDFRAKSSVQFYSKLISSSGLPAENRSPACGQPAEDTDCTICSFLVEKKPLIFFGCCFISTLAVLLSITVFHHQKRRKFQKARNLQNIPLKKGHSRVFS
Sequence (P16092 22-822): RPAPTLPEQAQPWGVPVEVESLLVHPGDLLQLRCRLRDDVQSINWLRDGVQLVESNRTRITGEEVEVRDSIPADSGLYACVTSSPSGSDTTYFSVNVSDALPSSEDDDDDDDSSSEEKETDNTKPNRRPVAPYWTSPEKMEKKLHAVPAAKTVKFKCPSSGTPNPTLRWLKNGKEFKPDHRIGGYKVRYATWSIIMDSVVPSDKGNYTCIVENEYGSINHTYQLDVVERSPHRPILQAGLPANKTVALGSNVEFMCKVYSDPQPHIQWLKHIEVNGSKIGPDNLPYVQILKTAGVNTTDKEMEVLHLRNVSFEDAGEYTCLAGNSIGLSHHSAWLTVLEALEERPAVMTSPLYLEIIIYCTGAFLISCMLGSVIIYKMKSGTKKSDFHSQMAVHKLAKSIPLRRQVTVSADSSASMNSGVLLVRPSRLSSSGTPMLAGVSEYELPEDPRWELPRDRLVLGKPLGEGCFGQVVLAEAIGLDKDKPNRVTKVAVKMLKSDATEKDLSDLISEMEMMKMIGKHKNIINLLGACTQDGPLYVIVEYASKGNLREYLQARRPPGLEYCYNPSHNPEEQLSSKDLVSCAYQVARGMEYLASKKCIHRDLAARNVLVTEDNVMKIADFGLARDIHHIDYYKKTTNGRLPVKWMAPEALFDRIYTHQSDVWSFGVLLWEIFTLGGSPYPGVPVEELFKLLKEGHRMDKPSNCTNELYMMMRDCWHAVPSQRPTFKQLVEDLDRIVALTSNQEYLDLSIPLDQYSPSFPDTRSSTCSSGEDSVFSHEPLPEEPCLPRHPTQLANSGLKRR
Measurement Notes: Glucose uptake in 3T3-L1 adipocytes
Format: cell-based
Assay Conditions: stimulated 20 hours, 3H-deoxy-glucose
Here, each record is paired with measured Glucose uptake Emax data.
// note: answer is a bare numeric in %

Examples with answers:
I am curious: what Glucose uptake Emax value has been reported for S{Beta-180}-2-aminoethylsulfanyl-Ala[Gln121, Leu168, Cys180]FGF21 (protein, N-terminal Ala; cysteamine disulfide on Cys180) AHPIPDSSPLLQFGGQVRQRYLYTDDAQQTEAHLEIREDGTVGGAADQSPESLLQLKALKPGVIQILGVKTSRFLCQRPDGALYGSLHFDPEACSFRELLLEDGYNVYQSEAHGLPLHLPGQKSPHRDPAPRGPARFLPLPGLPPALPEPPGILAPQPPDVGSSDPLSLVGPSQGRSPSYCS ?
102

Requested field: Glucose uptake Emax. Item: S{Beta-179}-[2-[2-[[2-[2-[2-[[2-[2-[2-[[(4S)-4-carboxy-4-(15-carboxypentadecanoyl-amino)butanoyl]amino]ethoxy]ethoxy]acetyl]amino]ethoxy]ethoxy]acetyl]amino]-ethylamino]-2-oxoethyl]-Ala[Gln121,Leu168, … (protein) HPIPDSSPLLQFGGQVRQRYLYTDDAQQTEAHLEIREDGTVGGAADQSPESLLQLKALKPGVIQILGVKTSRFLCQRPDGALYGSLHFDPEACSFRELLLEDGYNVYQSEAHGLPLHLPGQKSPHRDPAPRGPARFLPLPGLPPALPEPPGILAPQPPDVGSSDPLSLVGPSQGRSPSCAS
54

Next up:
Which value of Glucose uptake Emax has been reported for MetFGF21 (protein) MHPIPDSSPLLQFGGQVRQRYLYTDDAQQTEAHLEIREDGTVGGAADQSPESLLQLKALKPGVIQILGVKTSRFLCQRPDGALYGSLHFDPEACSFRELLLEDGYNVYQSEAHGLPLHLPGNKSPHRDPAPRGPARFLPLPGLPPALPEPPGILAPQPPDVGSSDPLSMVGPSQGRSPSYAS in the records?
100
